Source listed as ChEMBL document CHEMBL3425497.

# Measurement target: CYP2C19 (Homo sapiens, UniProt P33261)
# Sequence (P33261 whole entry): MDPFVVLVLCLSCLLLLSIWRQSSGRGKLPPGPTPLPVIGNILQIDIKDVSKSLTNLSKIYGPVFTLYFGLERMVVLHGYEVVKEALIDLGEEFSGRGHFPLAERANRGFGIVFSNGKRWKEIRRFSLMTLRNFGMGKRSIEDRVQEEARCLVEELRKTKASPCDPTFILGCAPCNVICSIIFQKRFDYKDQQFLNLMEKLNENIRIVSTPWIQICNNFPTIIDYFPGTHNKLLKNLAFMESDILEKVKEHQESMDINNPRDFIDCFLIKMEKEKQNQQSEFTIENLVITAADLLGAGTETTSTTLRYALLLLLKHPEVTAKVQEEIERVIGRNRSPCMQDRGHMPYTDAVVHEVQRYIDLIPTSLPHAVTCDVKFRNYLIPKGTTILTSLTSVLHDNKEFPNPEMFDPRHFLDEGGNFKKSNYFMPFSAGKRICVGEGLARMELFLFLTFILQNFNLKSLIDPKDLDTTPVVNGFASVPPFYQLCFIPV
# Procedure details: Inhibition of CYP2C19 (unknown origin) at 600 nM
# Format: ADME
Measured endpoint: inhibition at 0.6 µM

Enquiry: Give inhibition at 0.6 µM (CYP2C19 (Homo sapiens, UniProt P33261)) of the following molecule: COc1cc(NC(=O)CCN2CCC(OC(=O)Nc3ccccc3-c3ccccc3)CC2)c(Cl)cc1CNC[C@H](O)c1ccc(O)c2[nH]c(=O)ccc12 [BATEFENTEROL]
Return: < 20%

* * *

# Tested on: Cavia porcellus
# Procedure details: Bronchoprotection in male Duncan Hartley guinea pig bronchoconstriction einthoven model assessed as inhibition of methacholine-induced bronchoconstriction at 100 microg/ml, inhalation after 24 hrs by in vivo muscarinic antagonist and beta2 agonist activity assay
# Assay type: functional
# Set-up: scale not given: the % may be the effect or the level left
Measured endpoint: Activity

# annotated cases, reported Activity shown
Smiles structure	Activity
O=C(CCN1CCC(OC(=O)Nc2ccccc2-c2ccccc2)CC1)Nc1cccc(CCNC[C@H](O)c2ccc(O)c3[nH]c(=O)ccc23)c1	72%
Cc1cc(CNC[C@H](O)c2ccc(O)c3[nH]c(=O)ccc23)ccc1NC(=O)CCN1CCC(OC(=O)Nc2ccccc2-c2ccccc2)CC1	96%

Enquiry: Query (molecule): COc1cc(NC(=O)CCN2CCC(OC(=O)Nc3ccccc3-c3ccccc3)CC2)c(Cl)cc1CNC[C@H](O)c1ccc(O)c2[nH]c(=O)ccc12 ; field requested: Activity
Return: 77%
